Tested on: PIP5K1C
Measurement Conditions: Compound Concentration (nM):1000;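 also: KINOMEscan scanMAX binding as percent activity remaining versus control; lower means stronger binding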
Observed Property: Percent Control (%)

Molecule	Measure Unit	Measured Value
Cl.c1ccc(Cc2nc3ccc(Nc4ncnc5ccccc45)cc3[nH]2)cc1 [GR269666A]	%	86
COc1cc2ncn(-c3cc(O[C@H](C)c4ccccc4Cl)c(C(N)=O)s3)c2cc1OC [GSK237701A]	%	9.9
CN(C)c1cc2c(Nc3ccc4c(cnn4Cc4ccccc4)c3)ncnc2cn1 [GW282974X]	%	100
COc1cc(C)c(N(C)C(=O)CN(C)C)cc1Nc1nc(Nc2cccc(F)c2C(N)=O)c2cc[nH]c2n1	%	100
O=C1Nc2ccc(C(=O)c3ccco3)cc2C1=Cc1cc(Cl)c(O)c(Cl)c1 [GW406108X]	%	43
Cl.O=C(Nc1ccc(Oc2ccc3[nH]c(NC(=O)c4ccccc4)nc3c2)cc1)Nc1cc(C(F)(F)F)ccc1F [GW709042A]	%	98
COc1cc2ncnc(Nc3ccc4c(cnn4Cc4ccccc4)c3)c2cc1OC.Cl [GW282449A]	%	76
O=C(Nc1n[nH]c2nc(-c3ccc(O)cc3)c(Br)cc12)C1CC1	%	59

====

Here the recorded Percent Control is given for each entry.
Test system: NEK6
Measurement Conditions: Compound Concentration (nM):1000
Observed Property: Percent Control (%)

Molecule	Tested Target	Measured Value
COc1ccc2[nH]c3c4[nH]c5ccc(OC)cc5c4c4c(c3c2c1)C(=O)NC4=O [GW296115X]	NEK6	87
COc1cc2ncn(-c3cc(O[C@H](C)c4ccccc4Cl)c(C(N)=O)s3)c2cc1OC [GSK237701A]	NEK6	100
COc1ccc2cc(-c3c(-c4ccncc4)nc(-c4ccc(S(C)(=O)=O)cc4C)n3C)ccc2c1 [SB-633825]	NEK6	91
C[C@@H](Oc1cc(-n2cnc3ccc(OC4CCN(C)CC4)cc32)sc1C(N)=O)c1ccccc1Cl [GSK579289A]	NEK6	100
NS(=O)(=O)c1ccc(N/N=C2\C(=O)Nc3ccc(-c4cnco4)cc32)cc1 [GW276655]	NEK6	77
CN(C)CCNC(=O)Nc1ccc(N(C)c2ccnc(Nc3ccc(CS(C)(=O)=O)cc3)n2)cc1.Cl [GW830900A]	NEK6	96
COc1cc(C=NNc2ncnc3c2cnn3-c2ccccc2)ccc1O [GW513184X]	NEK6	82
COc1cc(N2CCN(C(C)C)CC2)ccc1Nc1nc(Nc2ccc(F)cc2C(=O)NC[C@@H](O)CO)c2cc[nH]c2n1 [GSK1392956A]	NEK6	100

====

Test system: ABL1-nonphosphorylated
Measurement Conditions: Compound Concentration (nM):1000
Classification field: enter satisfied for Percent Control values not below 60%, not satisfied for values below it.

Molecule	Category Label
Nc1ncnc2occ(-c3ccc(NC(=O)Nc4cc(C(F)(F)F)ccc4F)cc3)c12 [GW770249X]	not satisfied
COc1ccc2[nH]c3c4[nH]c5ccc(OC)cc5c4c4c(c3c2c1)C(=O)NC4=O [GW296115X]	not satisfied
COc1ccc2c(-c3ccnc(Nc4cccc(OC(F)(F)F)c4)n3)cnn2n1 [GW810372X]	satisfied
CC1=C(C(=O)Nc2ccc3[nH]ncc3c2)C(c2ccc3ccccc3c2)CC(=O)N1 (centres unmarked) [GSK270822A]	not satisfied
Cc1cc(O)cc(C)c1/C=C/c1cncc(C(N)=O)c1 [GW435821X]	not satisfied
COc1ccccc1-c1cc(/C=C2\C(=O)Nc3ncc(Br)cc32)cc(Br)c1O [GW442130X]	satisfied
Cl.O=S1CCN(Cc2ccc(-c3ccc4ncnc(Nc5ccc(OCc6ccccc6)c(F)c5)c4c3)o2)CC1 [GW576924A]	satisfied
